Measured values drawn from patent US20220112288A1 for this set.

# study_system: T1, Rhesus macaque CD4-HIS (Acro Biosystems, Cat. CD4-C52H7) (rhesus macaque, UniProt P16003 26-390)
# T1 construct: Bought reagent; also called Rhesus CD4; rhesus CD4-HIS; not shown: His tag
# T1 sequence (P16003 26-390 limits assumed): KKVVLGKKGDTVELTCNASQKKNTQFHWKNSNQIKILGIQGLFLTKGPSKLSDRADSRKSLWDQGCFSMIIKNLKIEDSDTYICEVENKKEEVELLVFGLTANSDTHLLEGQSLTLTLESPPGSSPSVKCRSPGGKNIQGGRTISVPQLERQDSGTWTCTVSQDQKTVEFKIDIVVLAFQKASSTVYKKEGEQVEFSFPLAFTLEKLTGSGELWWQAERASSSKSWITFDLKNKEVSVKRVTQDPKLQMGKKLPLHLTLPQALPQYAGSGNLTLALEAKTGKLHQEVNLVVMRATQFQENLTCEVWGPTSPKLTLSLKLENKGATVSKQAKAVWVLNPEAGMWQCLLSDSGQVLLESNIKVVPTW
# experiment_description: BLI Octet, mAb on anti-mouse Fc sensor, rhesus CD4-HIS 25-100 nM, 1:1 global fit;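 note: purified antibodies captured at 10 µg/mL, rhesus CD4 analyte run as a three-concentration serial dilution, irrelevant antibody as reference control, one kinetic constant set per antibody from global fitting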
Each entry below carries its reported koff.
Could you give me the number in s⁻¹? Just the number is fine.

75110_03C01A (antibody, V domains shown, Tested as antibody purified from AlivaMab Mouse hybridoma supernatant (captured by anti-mouse IgG Fc)) VH: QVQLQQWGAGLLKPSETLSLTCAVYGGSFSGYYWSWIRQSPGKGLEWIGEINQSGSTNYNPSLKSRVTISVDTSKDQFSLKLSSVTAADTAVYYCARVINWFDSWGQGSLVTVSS VL: DIQMTQSPSSVSASVGDRVTITCRASQGISSWLAWYQQKPGNAPKLLIYDASSFQSGVPSRFSGSGSGTDFTLTISSLQTEDFATYYCQQANSFPYTFGQGTKLEIK
0.0027

Field koff (entry 75110_01J17A (antibody, V domains shown, Tested as antibody purified from AlivaMab Mouse hybridoma supernatant (captured by anti-mouse IgG Fc)) VH: EVQLVESGGGLVQPGGSLRLSCAASGFTFSSYDMHWVRQGTGKGLEWVSTIGTADDTYYPGSVKGRFTISRENAENSLYLQMNSLRAGDTAVYYCARGGDYYYGMDVWGQGTTVTVSS VL: EIVLAQSPGTLSLSPGERATLSCRASQSVYISYLAWYQQKPGQAPRLLIYGASSRATGIPDRFSGSGSGTDFTLTITRLEPEDFAVYYCQQFGSSPFTFGPGTKVDFK ) reads 0.0017
